- assayComment: protein stability index of a GFP-peptide fusion (yeast GPS) (PSI 1-4); higher = more stable; sorted into four equal gates, so the index is relative within each strain
- conditionDetails: pdr5∆
Criterion: protein stability index meeting or surpassing 3. Met: Y. Not met: N.

Please review the entries below; each comes with its answer.
NYASVYPVVEVERGRVG [RRP43] = Y
KIPAVEYFGGESPVDVQ [FAS1] = Y
KPSLVDVHLLESKVYHK [RPN6] = N
NNIVSVLTAGVNSVAIK [RPN11] = N
AEKFVPIDIFQIIRRVK [SIR3] = N
DLKNTRMKSITSTSQKI [SNF5] = Y
SDIVFIHQNAGRLLRAM [BRR2] = N
QKEQNVNNRDSEKGFSK [YCS4] = Y

Exam item: protein stability index >= 3 for KGLVSQQLDSFNQFVDY [RPB2] ?
Marked response: N

Exam item: QDVDDAHAIDQMTWRQW [POP8] ?
Marked response: N

###

Catalogue of protein stability index values
- assayComment: protein stability index of a GFP-peptide fusion (yeast GPS) (PSI 1-4); higher = more stable; sorted into four equal gates, so the index is relative within each strain
- conditionDetails: pdr5∆
// keep it numeric: no unit symbol after the value

Please review the entries below; each comes with its answer.
AGGGSNKSSVRPTGGAN [MED6] = 3.12
SNGGNNMLPQRQSSVGS [SNF2] = 2.18

Exam item: Which protein stability index value belongs to LTSSKSVIVSQFCAFDS [SIN4] ?
Marked response: 2.14

Exam item: Same thing, different sequence: PSTSSNMDVGNPRKRKA [GAL11]
Marked response: 2.25

###

- assayComment: protein stability index of a GFP-peptide fusion (yeast GPS) (PSI 1-4); higher = more stable; sorted into four equal gates, so the index is relative within each strain
- conditionDetails: doa10∆
The label depends only on protein stability index: YES if it is at least 3, NO if it is smaller.

TTGSIFEKDLMAYFDEN [BRN1] = NO
KSTPEGTLWAHVLKTVD [SNU114] = NO
EVSGENVVEADLKRFVD [QCR2] = YES

Next up:
Exam item: In plain terms: is recorded protein stability index at least 3 for SDEVSRGIPRLSEDELR [SMC4] ?
Marked response: YES

###

Property: protein stability index; scope: individual sequences
- assayComment: protein stability index of a GFP-peptide fusion (yeast GPS) (PSI 1-4); higher = more stable; sorted into four equal gates, so the index is relative within each strain
- conditionDetails: san1∆
Lab note: record just the number, no unit beside it.

Solved entries (count: 5):
VSTSSGAAANNNDQKRQ [YJL041W/NSP1] = 3.27
NPHDTLNRIKKYLLTQR [PRP8] = 2.25
ITFLIEKAKEMIRLLGS [ECM29] = 2.9
KGLVSQQLDSFNQFVDY [RPB2] = 2.41
QMMARMAQTATQQQPGA [SRP54] = 2.35

Exam item: Give the measured protein stability index of QLCQITCQILESGEDEA [RRP46] .
Marked response: 1.72

Exam item: How about this sequence: KLNDSQRKTVNSDDILS [POP1]
Marked response: 2.38

Exam item: Another sequence to check: EAKSFQDEAELVEEKTP [RPC82]
Marked response: 3.51

Exam item: Next sequence up: ANTGGGLFGANSNSNSG [YGL172W/NUP49]
Marked response: 1.76

Exam item: Same question for STTQEILEFITAAQVAN [RPC34] please.
Marked response: 1.9

Exam item: Same thing, different sequence: NNIVSVLTAGVNSVAIK [RPN11]
Marked response: 2.66

Exam item: Would you mind doing KIDKPIRTQVNTGGESV [RGR1] as well?
Marked response: 2.32

Exam item: Then this sequence: KHLWDQKSLAALKKSRS [RPC17]
Marked response: 2.92

Exam item: Now try SPSYSPTSPNYSPTSPS [RPO21] .
Marked response: 2.97

###

- assayComment: protein stability index of a GFP-peptide fusion (yeast GPS) (PSI 1-4); higher = more stable; sorted into four equal gates, so the index is relative within each strain
- conditionDetails: pdr5∆
I would appreciate it if you labelled entries class 1 when protein stability index is 2 or higher, otherwise class 0.

Exam item: Can KSTPEGTLWAHVLKTVD [SNU114] be said to have protein stability index at or above 2?
Marked response: class 0

Exam item: Try the sequence DVKVIMATNKIETLDPA [RPT2]
Marked response: class 1

Exam item: Could you do the same for YEGMKLGNHAITIDSVV [YMR129W/POM152] , please?
Marked response: class 0

Exam item: Also check ISKTVRFNVVKVSAAAG [RPS11A]
Marked response: class 0

Exam item: Can you handle MSIDEEDKDSESFSEVC [YCG1] next?
Marked response: class 1

Exam item: Try the sequence FDKNTKTTPNTASSEAS [YMR153W/NUP53]
Marked response: class 1

Exam item: Please give the result for DRCVDPEDPYFNTLVRI [DIS3] too.
Marked response: class 1

###

- assayComment: protein stability index of a GFP-peptide fusion (yeast GPS) (PSI 1-4); higher = more stable; sorted into four equal gates, so the index is relative within each strain
- conditionDetails: pdr5∆
outcomeMeasure: protein stability index
Provide a numeric answer; units are not to be included.

Recorded protein stability index, per entry:
YYSRITLLRLNELLDLT [RPN5] = 1.77
IEMYVQEASKQYTKDEQ [RPN2] = 3.16
DSRLSRKQIDETQVLVS [BRR2] = 1.83
TIDEQSQISPEKQTPNK [RPN1] = 3.57

Exam item: Which protein stability index value is on record for FSQKEMAFNLLGLLTPE [FAS2] ?
Marked response: 2.32

Exam item: // repeat for LSIRLTNQLKSLKGLQS [RPN8] and report
Marked response: 1.49

###

- assayComment: protein stability index of a GFP-peptide fusion (yeast GPS) (PSI 1-4); higher = more stable; sorted into four equal gates, so the index is relative within each strain
- conditionDetails: pdr5∆
Measured protein stability index values are reported for all entries that follow.
Answer with the value's number alone.

The examples below pair each entry with its known result.
AELLNEWHSSLTLKEAE [PUP2] = 2.93
VVDRESDIPKTTVQVAE [PRE4] = 2.99
TDLIREKTMMTFGKPEE [YCS4] = 3.31

Exam item: Which protein stability index is listed for QNLRKELLIYKKSQCKK [YIL149C/MLP2] ?
Marked response: 2.35

Exam item: Now this one: NEENDLDVDPAKRIRVS [RPB2]
Marked response: 3

Exam item: Also check QGDEALSVDDIRGAVGN [RTT102]
Marked response: 3.49

Exam item: Next: NGKDSEIMYTGVSISVS [SMC3]
Marked response: 2.87

###

- assayComment: protein stability index of a GFP-peptide fusion (yeast GPS) (PSI 1-4); higher = more stable; sorted into four equal gates, so the index is relative within each strain
- conditionDetails: san1∆
outcomeMeasure: protein stability index
Field format: numeric only.

The cases that follow already have their protein stability index on record.
FPTTSHESLVTTLLRKK [MED8] = 1.72
VHSSSPSTSSNMDVGNP [GAL11] = 2.69
DIEFINSLLTIVWRFIS [RPC34] = 2.51
EVSDFDEMYELTDPMTV [DIB1] = 2.94

Exam item: Name the recorded protein stability index for MVHLYSIVEECDARFDE [RPC17] .
Marked response: 3.01

Exam item: What do you get for MVNSHGIRYIRLKQVFN [NNF1] ?
Marked response: 1.88

Exam item: Okay, and DNPDQGISDMCRLFFTE [YCS4] ?
Marked response: 3.03

Exam item: Entry to check: SIATKRFDAQTGSDREV [RPT3]
Marked response: 3.17

Exam item: How about this sequence: IHKIQNDNNLKKLESQE [RPN5]
Marked response: 2.85

Exam item: Now this one: SKLLREHGYQSRGFEVM [RPB2]
Marked response: 2.9

Exam item: Field entry: NTEEKAELQSNLQVELL [YGL100W/SEH1]
Marked response: 1.96

Exam item: Further, for EEEMAPYYKYLCEEYLV [RPN7] ?
Marked response: 2.5

Exam item: Next sequence: LAIIGDENPDLLGYTGI [PRE8]
Marked response: 2.73

###

- assayComment: protein stability index of a GFP-peptide fusion (yeast GPS) (PSI 1-4); higher = more stable; sorted into four equal gates, so the index is relative within each strain
- conditionDetails: pdr5∆
outcomeMeasure: protein stability index
Keep the answer to the number alone.

Worked cases, answers included:
SVIVKFHSEPDRDENWI [LIN1] = 3.08
LWSIHPSRQFDHYESNQ [SRB8] = 2.24
NEVYSAYVVNDTAPKPN [DLS1] = 3.1
FKSTESNISDEKSRISE [YMR129W/POM152] = 3.01
RQSSVGSLNATNFSPTP [SNF2] = 2.98
FPMKQGVLLPTRIKLLL [RPS6A] = 1.39
LKNKREIYRISFQLSKI [RPS9B] = 3.66
RAIILERNAAYQKEYET [RPL7A] = 2.81

Exam item: Tell me the measured protein stability index of APRQEISEEETTVKPLF [YAR002W/NUP60] , please.
Marked response: 3.22

Exam item: Field entry: SSKLYQMQQQQQAQAQA [GAL11]
Marked response: 2.09

Exam item: Request: LAFIPNILALNLVSLLI [YML031W/NDC1]
Marked response: 1.38

Exam item: Further, for MPLKILLATKQHDSSAN [CSN12] ?
Marked response: 1.97

Exam item: Same lookup for LSDYNIQKESTLHLVLR [RPS31] , please.
Marked response: 2.72

Exam item: Another: KERSIVVGRTTRSNPPF [REC8]
Marked response: 2.7

Exam item: Another sequence to look at: LANLIRDALRNIKNTNE [RRP6]
Marked response: 2.51
